System: ncRNAs (SEQ ID NO 28-89)
Test: ncRNA arrays of melanocytes, keratinocytes, normal skin, melanoma cell lines and patient samples
Design: species or system human
Conditions: melanoma patient 8 sample compared to normal skin
# ncRNA array expression, patient 8 per record follows
API doc: respond with a numeric literal and nothing else, no unit.

Examples with their reported ncRNA array expression, patient 8 follow.
SUBSTANCE	ncRNA array expression, patient 8
SEQ ID NO 33 (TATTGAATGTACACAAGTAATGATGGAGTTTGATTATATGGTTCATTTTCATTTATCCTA; DNA, backbone and methylation of C not given here; listed as Homo sapiens)	2.278
SEQ ID NO 63 (CTCACACGCACCCTTTCACTGTTTCTTAGTAATTTGTTTGTCTACAGACACAGACGGGAA; listed as DNA, chemistry not given here; listed as Homo sapiens)	−1.26
SEQ ID NO 45 (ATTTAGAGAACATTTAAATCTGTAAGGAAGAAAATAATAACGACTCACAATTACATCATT; listed as DNA, chemistry not given here; listed as Homo sapiens)	−2.042
SEQ ID NO 88 (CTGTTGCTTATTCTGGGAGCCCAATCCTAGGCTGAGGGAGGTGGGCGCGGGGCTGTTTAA; listed as DNA, chemistry not given here; listed as Homo sapiens)	−1.206
SEQ ID NO 37 (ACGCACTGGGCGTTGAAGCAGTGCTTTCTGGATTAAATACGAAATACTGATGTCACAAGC; DNA, backbone and methylation of C not given here; listed as Homo sapiens)	1.302

**Query** For the substance shown here, SEQ ID NO 66 (TCCTTTTTATCTTGCACTCAGATGGTATTTTTAGAGATGTTTCTTCAATCAAAACAAGAT; listed as DNA, chemistry not given here; listed as Homo sapiens) , give the reported ncRNA array expression, patient 8.
**Result** 2.869

**Query** Now the same for SEQ ID NO 68 (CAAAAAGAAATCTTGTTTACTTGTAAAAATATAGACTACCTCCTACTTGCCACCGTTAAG; listed as DNA, chemistry not given here; listed as Homo sapiens)
**Result** −0.8097

**Query** Now the same for SEQ ID NO 70 (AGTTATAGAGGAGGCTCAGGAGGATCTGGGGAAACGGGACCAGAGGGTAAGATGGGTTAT; listed as DNA, chemistry not given here; listed as Homo sapiens)
**Result** −2.182

**Query** Now the same for SEQ ID NO 69 (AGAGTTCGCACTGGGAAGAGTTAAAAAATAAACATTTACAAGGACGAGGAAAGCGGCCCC; listed as DNA, chemistry not given here; listed as Homo sapiens)
**Result** −1.777

* * *

Test system: ncRNAs (SEQ ID NO 28-89)
Assay: ncRNA arrays of melanocytes, keratinocytes, normal skin, melanoma cell lines and patient samples
Design: species or system human
Details: melanoma patient 19 sample compared to normal skin
ENDPOINT: ncRNA array expression, patient 19
API doc: respond with a numeric literal and nothing else, no unit.

Examples with their reported ncRNA array expression, patient 19 follow.
SUBSTANCE	OBSERVED_MEASUREMENT
SEQ ID NO 61 (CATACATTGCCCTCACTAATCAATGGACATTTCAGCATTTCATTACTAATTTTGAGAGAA; listed as DNA, chemistry not given here; listed as Homo sapiens)	0.6865
SEQ ID NO 38 (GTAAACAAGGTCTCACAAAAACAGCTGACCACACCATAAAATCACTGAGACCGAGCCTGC; listed as DNA, chemistry not given here; listed as Homo sapiens)	−0.7729
SEQ ID NO 82 (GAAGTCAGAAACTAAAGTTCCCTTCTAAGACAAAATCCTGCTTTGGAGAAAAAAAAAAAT; listed as DNA, chemistry not given here; listed as Homo sapiens)	−3.347
SEQ ID NO 76 (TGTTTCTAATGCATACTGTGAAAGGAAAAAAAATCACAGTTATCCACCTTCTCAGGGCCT; listed as DNA, chemistry not given here; listed as Homo sapiens)	−0.775

**Query** Can you look up ncRNA array expression, patient 19 on ncRNAs (SEQ ID NO 28-89) for SEQ ID NO 44 (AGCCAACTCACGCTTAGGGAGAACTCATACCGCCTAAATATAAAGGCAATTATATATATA; listed as DNA, chemistry not given here; listed as Homo sapiens) ?
**Result** −1.83

**Query** Now the same for SEQ ID NO 66 (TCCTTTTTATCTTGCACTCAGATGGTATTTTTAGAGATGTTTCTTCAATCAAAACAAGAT; listed as DNA, chemistry not given here; listed as Homo sapiens)
**Result** 0.7228

**Query** Now the same for SEQ ID NO 62 (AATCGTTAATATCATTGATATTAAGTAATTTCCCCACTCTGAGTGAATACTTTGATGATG; listed as DNA, chemistry not given here; listed as Homo sapiens)
**Result** 1.414

**Query** Now the same for SEQ ID NO 79 (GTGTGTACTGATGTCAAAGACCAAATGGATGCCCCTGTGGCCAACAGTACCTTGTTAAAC; listed as DNA, chemistry not given here; listed as Homo sapiens)
**Result** 1.52

**Query** Now the same for SEQ ID NO 89 (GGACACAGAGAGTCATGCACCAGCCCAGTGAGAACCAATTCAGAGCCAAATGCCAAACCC; listed as DNA, chemistry not given here; listed as Homo sapiens)
**Result** −0.5304

**Query** Now the same for SEQ ID NO 51 (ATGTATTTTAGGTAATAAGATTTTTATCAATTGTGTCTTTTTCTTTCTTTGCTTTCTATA; listed as DNA, chemistry not given here; listed as Homo sapiens)
**Result** 0.7228
